test system: ECO 190317; experiment: MIC, broth microdilution (CLSI), substance alone or ATB combined with compound at 4 or 8 μg/mL; format: cell-based, E. coli; details: Escherichia coli; antibiotic alone; ECO 190317; read-out: MIC ATB alone
I'd appreciate it if you could supply MIC values for the items below.
Expressed in µg/mL, but write only the number.

Request: # lookup: MIC of C[C@H]1[C@H](NC(=O)/C(=N\OC(C)(C)C(=O)O)c2csc(N)n2)C(=O)N1S(=O)(=O)O [ATM, Aztreonam, reference compound]
Result: 128

Request: # lookup: MIC of C[C@@H]1O[C@@H]1P(=O)(O)O [FOS, Fosfomycin, reference compound]
Result: 0.5

Request: # lookup: MIC of C[C@@H](O)[C@H]1C(=O)N2C(C(=O)O)=C(S[C@@H]3CN[C@H](C(=O)N(C)C)C3)[C@H](C)[C@H]12 [MEM, Meropenem]
Result: 0.031

Request: # lookup: MIC of CO/N=C(\C(=O)N[C@@H]1C(=O)N2C(C(=O)[O-])=C(C[N+]3(C)CCCC3)CS[C@H]12)c1csc(N)n1 [FEP, Cefepime]
Result: 512

----------
system: SPN 49619; assay: MIC, broth microdilution (CLSI), substance alone or ATB combined with compound at 4 or 8 μg/mL; format: cell-based, S. pneumoniae; conditions: MIC of SYN; compound @8 μg/ml; SPN 49619
readout.name: MIC ATB combined with Example compound (µg/mL)
Expressed in µg/mL, but write only the number.

Request: # query: MIC ATB combined with Example compound | item O=C1N2CC(n3cccn3)=CC(C2)N1OC(F)(F)C(=O)[O-].[Li+] (stereo not drawn) [Example 13] | system: SPN 49619
Result: 0.5

Request: # query: MIC ATB combined with Example compound | item O=C1N2CC(n3ccnn3)=CC(C2)N1OS(=O)(=O)[O-].[Na+] (stereo not drawn) [Example 12] | system: SPN 49619
Result: 0.125

Request: # query: MIC ATB combined with Example compound | item O=C1N2CC(n3cccn3)=CC(C2)N1OS(=O)(=O)[O-].[Na+] (stereo not drawn) [Example 11] | system: SPN 49619
Result: 0.25

Request: # query: MIC ATB combined with Example compound | item O=C1N2CC(c3ncco3)=CC(C2)N1OC(F)(F)C(=O)O (stereo not drawn) [Example 7] | system: SPN 49619
Result: 0.5

Request: # query: MIC ATB combined with Example compound | item NC[C@H]1C=C(c2cnco2)[C@@H]2CN1C(=O)N2OS(=O)(=O)[O-].O=C(O)C(F)(F)F.[Na+] (relative stereo) [Example 1] | system: SPN 49619
Result: 0.5

----------
System: KPN BAA-1898
Test: MIC, broth microdilution (CLSI), substance alone or ATB combined with compound at 4 or 8 μg/mL
Type: cell-based, K. pneumoniae
Settings: Klebsiella pneumoniae, BAA1898; KPN BAA-1898; antibiotic alone; read-out: MIC ATB alone
Description: Compounds of the present invention were assessed against genotyped bacterial strains alone or in combination with an antibacterial. In the assays, MICs of said compounds or combination of antibiotics with fixed concentrations of said compounds (4 or 8 μg/mL) were determined by the broth microdilution method according to the Clinical Laboratory Standards Institute (CLSI-M7-A7). […]
readout.name: MIC

Request: # lookup: MIC of C=CC1=C(C(=O)O)N2C(=O)[C@@H](NC(=O)/C(=N\OCC(=O)O)c3csc(N)n3)[C@H]2SC1 [FIX, Cefixime, reference compound]
Result: > 512 µg/mL

Request: # lookup: MIC of CO/N=C(\C(=O)N[C@@H]1C(=O)N2C(C(=O)O)=C(COC(N)=O)CS[C@H]12)c1ccco1 [FUR, Cefuroxime, reference compound]
Result: > 512 µg/mL

Request: # lookup: MIC of NCC[C@H](O)C(=O)N[C@@H]1C[C@H](N)[C@@H](O[C@H]2O[C@H](CN)[C@@H](O)[C@H](O)[C@H]2O)[C@H](O)[C@H]1O[C@H]1O[C@H](CO)[C@@H](O)[C@H](N)[C@H]1O [AN, Amikacin, reference compound]
Result: 1 µg/mL

Request: # lookup: MIC of COCC1=C(C(=O)O)N2C(=O)[C@@H](NC(=O)/C(=N\OC)c3csc(N)n3)[C@H]2SC1 [POD, Cefpodoxime, reference compound]
Result: > 512 µg/mL

Request: # lookup: MIC of CC1(C)S[C@@H]2[C@H](NC(=O)[C@H](N)c3ccc(O)cc3)C(=O)N2[C@H]1C(=O)O [AMX, Amoxicillin, reference compound]
Result: > 1020 µg/mL

----------
tested on: KPN BAA-1898; assay: MIC, broth microdilution (CLSI), substance alone or ATB combined with compound at 4 or 8 μg/mL; format: cell-based, K. pneumoniae; details: KPN BAA-1898; with Example 1 at 8 μg/ml
I'd appreciate it if you could supply MIC ATB combined with Example 1 @8 μg/ml values for the items below.
Expressed in µg/mL, but write only the number.

Request: # lookup: MIC ATB combined with Example 1 @8 μg/ml of `CN(C)c1cc(NC(=O)CNC(C)(C)C)c(O)c2c1C[C@H]1C[C@H]3[C@H](N(C)C)C(O)=C(C(N)=O)C(=O)[C@@]3(O)C(O)=C1C2=O`
Result: 1

Request: # lookup: MIC ATB combined with Example 1 @8 μg/ml of NCC[C@H](O)C(=O)N[C@@H]1C[C@H](N)[C@@H](O[C@H]2O[C@H](CN)[C@@H](O)[C@H](O)[C@H]2O)[C@H](O)[C@H]1O[C@H]1O[C@H](CO)[C@@H](O)[C@H](N)[C@H]1O [AN, Amikacin, reference compound]
Result: 0.25

Request: # lookup: MIC ATB combined with Example 1 @8 μg/ml of C=CC1=C(C(=O)O)N2C(=O)[C@@H](NC(=O)/C(=N\OCC(=O)O)c3csc(N)n3)[C@H]2SC1 [FIX, Cefixime, reference compound]
Result: 0.25

Request: # lookup: MIC ATB combined with Example 1 @8 μg/ml of `C[C@@H](O)[C@H]1C(=O)N2C(C(=O)O)=C(SCCN=CN)C[C@H]12`
Result: 2

Request: # lookup: MIC ATB combined with Example 1 @8 μg/ml of CO/N=C(\C(=O)N[C@@H]1C(=O)N2C(C(=O)O)=C(COC(N)=O)CS[C@H]12)c1ccco1 [FUR, Cefuroxime, reference compound]
Result: 2

Request: # lookup: MIC ATB combined with Example 1 @8 μg/ml of COCC1=C(C(=O)O)N2C(=O)[C@@H](NC(=O)/C(=N\OC)c3csc(N)n3)[C@H]2SC1 [POD, Cefpodoxime, reference compound]
Result: 1

Request: # lookup: MIC ATB combined with Example 1 @8 μg/ml of `CO/N=C(\C(=O)N[C@@H]1C(=O)N2C(C(=O)[O-])=C(C[n+]3cccc4c3CCC4)CS[C@H]12)c1csc(N)n1`
Result: 0.125

----------
test system: PAE UFR48; test: Fractional Inhibitory Concentration Index, checkerboard assay; format: cell-based, P. aeruginosa; conditions: compound +PIP
I'd appreciate it if you could supply FIC index min values for the items below.
Keep the answer to the number alone.

Request: # lookup: FIC index min of `NCCON=C1C[C@@H](C(N)=O)N2C[C@@H]1N(OS(=O)(=O)[O-])C2=O.[Na+]`
Result: 0.31

Request: # lookup: FIC index min of `NC[C@@H]1CC(=NOCC(N)=O)[C@@H]2CN1C(=O)N2OS(=O)(=O)[O-].O=C(O)C(F)(F)F.[Na+]`
Result: 0.44

Request: # lookup: FIC index min of NC[C@H]1C=C(c2cnco2)[C@@H]2CN1C(=O)N2OS(=O)(=O)[O-].O=C(O)C(F)(F)F.[Na+] (relative stereo)
Result: 0.27

Request: # lookup: FIC index min of NCCn1c2c(sc1=O)C1CN(C2)C(=O)N1OS(=O)(=O)[O-].[Na+] (stereo not shown)
Result: 0.31

Request: # lookup: FIC index min of `O=C1N2CC(c3ncco3)=C[C@H](C2)N1OS(=O)(=O)[O-].[Na+]`
Result: 0.32

Request: # lookup: FIC index min of `NC[C@@H]1C(c2ncco2)=C[C@@H]2CN1C(=O)N2OS(=O)(=O)[O-].O=C(O)C(F)(F)F.[Na+]`
Result: 0.52

----------
I'd appreciate it if you could supply MIC ATB combined with Example 1 @8 μg/ml values for the items below.
test system: SAU 29213; assay: MIC, broth microdilution (CLSI), substance alone or ATB combined with compound at 4 or 8 μg/mL; format: cell-based, S. aureus; details: SAU 29213; with Example 1 @8 μg/ml
Expressed in µg/mL, but write only the number.

Request: # lookup: MIC ATB combined with Example 1 @8 μg/ml of `CO/N=C(\C(=O)N[C@@H]1C(=O)N2C(C(=O)O)=C(CSc3nc(=O)c(O)nn3C)CS[C@H]12)c1csc(N)n1`
Result: 4

Request: # lookup: MIC ATB combined with Example 1 @8 μg/ml of `CO/N=C(\C(=O)N[C@@H]1C(=O)N2C(C(=O)[O-])=C(C[n+]3cccc4c3CCC4)CS[C@H]12)c1csc(N)n1`
Result: 1

Request: # lookup: MIC ATB combined with Example 1 @8 μg/ml of `CN(C)c1cc(NC(=O)CNC(C)(C)C)c(O)c2c1C[C@H]1C[C@H]3[C@H](N(C)C)C(O)=C(C(N)=O)C(=O)[C@@]3(O)C(O)=C1C2=O`
Result: 0.125
